molecular target: Multidrug and toxin extrusion protein 1 (Mus musculus); assay: Inhibition of mouse Mate1 transfected in HEK293 cells assessed as uptake of [14C]-TEA preincubated for 15 mins by liquid scintillation counting analysis
Sequence (Q8K0H1 whole entry): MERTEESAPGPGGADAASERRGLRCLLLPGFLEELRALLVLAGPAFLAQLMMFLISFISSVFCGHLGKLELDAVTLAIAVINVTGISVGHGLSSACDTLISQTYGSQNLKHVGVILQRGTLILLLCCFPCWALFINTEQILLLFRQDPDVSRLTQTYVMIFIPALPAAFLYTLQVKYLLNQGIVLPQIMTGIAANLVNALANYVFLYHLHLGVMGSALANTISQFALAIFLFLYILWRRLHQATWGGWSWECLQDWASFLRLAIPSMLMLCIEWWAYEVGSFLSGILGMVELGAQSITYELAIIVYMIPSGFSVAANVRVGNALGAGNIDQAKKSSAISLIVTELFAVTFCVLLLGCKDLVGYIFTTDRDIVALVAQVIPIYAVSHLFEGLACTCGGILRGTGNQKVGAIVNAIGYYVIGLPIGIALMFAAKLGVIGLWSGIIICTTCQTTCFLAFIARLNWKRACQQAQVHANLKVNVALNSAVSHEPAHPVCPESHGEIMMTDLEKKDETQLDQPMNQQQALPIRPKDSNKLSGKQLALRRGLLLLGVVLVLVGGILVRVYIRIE
outcome_measure: Ki (nM)

[[record]]
compound_smiles = "CCc1nc(N)nc(N)c1-c1ccc(Cl)cc1"
assayed_target = "Multidrug and toxin extrusion protein 1 (Mus musculus)"
measured_value = 145


###

tested on: Plasma; experiment: Plasma concentration in ddY mouse at 5 mg/kg; type: ADME, organism-based; parameters: dose 5 mg/kg; settings: in vivo
outcome_measure: concentration (µM)

[[record]]
compound_smiles = "CCc1nc(N)nc(N)c1-c1ccc(Cl)cc1"
outcome_measure = "concentration"
measured_value = 3.7


###

target: Solute carrier family 22 member 1 (Mus musculus, UniProt O08966); assay: Inhibition of mouse Oct1 transfected in HEK293 cells assessed as uptake of [14C]-TEA preincubated for 15 mins by liquid scintillation counting analysis
Sequence (O08966 whole entry): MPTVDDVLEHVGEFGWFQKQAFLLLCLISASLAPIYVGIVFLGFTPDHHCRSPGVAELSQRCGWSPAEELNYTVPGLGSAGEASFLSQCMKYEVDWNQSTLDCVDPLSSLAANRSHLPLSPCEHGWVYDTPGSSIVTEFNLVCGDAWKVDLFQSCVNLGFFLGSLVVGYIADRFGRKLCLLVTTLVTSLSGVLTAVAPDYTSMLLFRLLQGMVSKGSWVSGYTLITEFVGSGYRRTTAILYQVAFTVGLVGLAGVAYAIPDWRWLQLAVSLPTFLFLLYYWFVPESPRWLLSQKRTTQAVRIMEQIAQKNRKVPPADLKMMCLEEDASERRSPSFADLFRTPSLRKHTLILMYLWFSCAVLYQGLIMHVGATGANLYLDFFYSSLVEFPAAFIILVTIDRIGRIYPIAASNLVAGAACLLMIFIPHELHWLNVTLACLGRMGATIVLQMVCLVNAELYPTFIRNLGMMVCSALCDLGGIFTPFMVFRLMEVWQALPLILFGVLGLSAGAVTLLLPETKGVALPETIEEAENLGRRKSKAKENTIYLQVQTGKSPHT
pKi: −log10 of the molar value.
outcome_measure: pKi

[[record]]
compound = "CCc1nc(N)nc(N)c1-c1ccc(Cl)cc1 [PYRIMETHAMINE]"
measured_value = 5.44

